# Wasserlöslichkeit der Lösungsmittel (%) listing for each entry below
# assay_comment: Water solubility of the solvents
# Format: physicochemical
# experimental_setup: Säureamide of Tabelle 4
measurement_type: Wasserlöslichkeit der Lösungsmittel (%)

>  <molecule>
CCCN(CCC)C(=O)C(C)C

>  <readout_value>
1,6%

$$$$
>  <molecule>
CCCN(CCC)C(=O)c1ccccc1

>  <readout_value>
0,5%

$$$$
>  <molecule>
CCN(CC)C(=O)c1ccccc1

>  <readout_value>
3,7%

$$$$
>  <molecule>
CCN(CC)C(=O)c1cccc(C)c1

>  <readout_value>
2,2%

$$$$
>  <molecule>
CCCC(=O)N(CCC)CCC

>  <readout_value>
1,5%

$$$$
>  <molecule>
CCCCC(CC)C(=O)N(C)C (stereo not drawn)

>  <readout_value>
1,5%

$$$$
